Hi there, I'd appreciate the recorded inhibition for every entry that follows.
assay: growth suppression of yeast trafficking mutant, preliminary HTS, modulators of trafficking downstream of Golgi apparatus project, 1536-format plate, OD 615 nm (AID 637); conditions: yeast transport mutant growth, absorbance 615 nm, 18 h; stronger effect = higher value; note: test concentration not given here
Field format: number, assumed %, no unit text.

q: Give its inhibition value. Item: COc1ccccc1-c1nc2n(n1)C(c1cccs1)C(C(=O)Nc1cccnc1)=C(C)N2 (configuration not stated)
a: -4.92

q: Give its inhibition value. Item: `COC(=O)c1ccc(CSc2nc(-c3ccc(OC)cc3)nc3c2c(=O)n(C)c(=O)n3C)o1`
a: -3.11

q: Give its inhibition value. Item: `O=C(COC(=O)c1ccc(Br)o1)Nc1ccc(S(=O)(=O)N2CCCC2)cc1`
a: -1

q: Give its inhibition value. Item: `COc1ccc(NC(=O)CCS(=O)(=O)c2ccc(OC)cc2)cc1`
a: -7.26

q: Give its inhibition value. Item: `O=C(NCCCNC(=O)c1ccccn1)c1ccccn1`
a: -3.49

q: Give its inhibition value. Item: `Cc1nn(-c2ccc(F)cc2)c(C)c1NS(=O)(=O)c1ccc(Cl)cc1`
a: -2.79

q: Give its inhibition value. Item: O=C(CCN1C(=O)C2C3C=CC(C3)C2C1=O)NC1CCCc2ccccc21 (configuration not stated)
a: 5.57

q: Give its inhibition value. Item: `Cc1cc(C)n(-c2nnc(C)n2/N=C/c2ccco2)n1`
a: -2.3

q: Give its inhibition value. Item: `Cc1cc(C)n2nc(SCc3cc(=O)n4ccccc4n3)nc2n1`
a: -1

q: Give its inhibition value. Item: `CCCn1cnc2c(c1=O)c1nc3ccccc3nc1n2Cc1ccccc1OC`
a: -2.22

q: Give its inhibition value. Item: `Nc1nc2sc3c(c2c(=O)s1)CCCC3`
a: 1.31

q: Give its inhibition value. Item: Cc1ccc2nc(NC(=O)C3CCCN(S(=O)(=O)c4cnc[nH]4)C3)sc2c1 (configuration not stated)
a: -3.11

q: Give its inhibition value. Item: `Cc1cccc(OCC(=O)N2CCC(N3CCCCCC3)CC2)c1`
a: -6.07

q: Give its inhibition value. Item: `CC(=O)c1cccc(S(=O)(=O)N2CCC(n3nnc4cc(F)ccc43)CC2)c1`
a: -2.62

q: Give its inhibition value. Item: `Cc1cc(=O)n(C)c(=O)n1CCCNc1ccccc1`
a: -5

q: Give its inhibition value. Item: CCC(C)NC(=O)C1(C)CCC(=O)N1CCc1ccc(OC)c(OC)c1 (configuration not stated)
a: -1.27

q: Give its inhibition value. Item: O=C1CC(c2ccc(F)c(Br)c2)C2=C(CCCC2=O)N1 (configuration not stated)
a: -4.67
